system: glucose-6-phosphate translocase from rat liver microsomes (Rattus norvegicus, UniProt F7EWB7)
Construct: glucose-6-phosphate translocase from rat liver microsomes; from tissue; host or cells: rat liver microsomes
Sequence (F7EWB7 1-429): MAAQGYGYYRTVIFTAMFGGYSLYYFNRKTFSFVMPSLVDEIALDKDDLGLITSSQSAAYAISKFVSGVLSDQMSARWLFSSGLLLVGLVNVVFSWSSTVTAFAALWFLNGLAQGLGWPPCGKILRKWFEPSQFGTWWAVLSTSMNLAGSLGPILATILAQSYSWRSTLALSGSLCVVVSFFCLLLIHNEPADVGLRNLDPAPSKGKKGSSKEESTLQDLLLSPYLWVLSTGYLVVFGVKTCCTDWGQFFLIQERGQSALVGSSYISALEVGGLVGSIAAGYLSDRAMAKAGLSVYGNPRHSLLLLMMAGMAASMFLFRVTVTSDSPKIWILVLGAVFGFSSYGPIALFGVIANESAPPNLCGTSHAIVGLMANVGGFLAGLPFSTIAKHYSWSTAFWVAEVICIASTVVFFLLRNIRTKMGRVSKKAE
assay: Inhibition of glucose-6-phosphate translocase from rat liver microsomes
Assay type: biochemical
condition.notes: read-out: Inhibition of glucose-6-phosphate translocase: IC50
pIC50: −log10 of the molar value.
quantity.kind: pIC50

In: Name the recorded pIC50 of the item COC(=O)CC1CCC2(O1)OC1(OC(=O)c3c(OC)cc4c(c31)C(=O)c1c(O)cccc1C4=O)c1c(OC)cccc12 (stereo not shown) in your answer.
Out: < 4.00
